Where do the numbers come from? From patent US11370785B2.

Target System: human FXR (Homo sapiens)
Construct: expressed in transfected cells; host or cells: HEK293 cells stably carrying a 5xGal4-response-element firefly luciferase reporter, transiently transfected with the pcDNA3.1-Gal4-FXR plasmid
Sequence (Q96RI1 262-486 limits assumed): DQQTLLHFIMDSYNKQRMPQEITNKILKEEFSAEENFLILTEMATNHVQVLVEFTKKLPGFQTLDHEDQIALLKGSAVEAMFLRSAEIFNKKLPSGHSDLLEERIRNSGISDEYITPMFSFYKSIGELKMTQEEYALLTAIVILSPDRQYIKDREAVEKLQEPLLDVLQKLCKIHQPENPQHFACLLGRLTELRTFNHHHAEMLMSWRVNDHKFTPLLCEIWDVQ
Method: transient human FXR/Gal4-luciferase reporter assay
Assay type: cell-based
Conditions: Gal4-hFXR reporter in HEK293 cells; relative to 8 μM GW-4064; read-out: FXR EC50
Class assignment keyed on EC50, ranges label 0: < 30 nM; label 1: ≥ 30 nM and < 400 nM; label 2: ≥ 400 nM

| Compound | Discrete Label |
| --- | --- |
| COCCOc1cc(C(=O)O)nc2ccc(N3CCC4(CC3)CC(=Cc3c(-c5ccccc5C(F)(F)F)noc3C3CC3)C4)cc12 [Example 98] | label 1 |
| O=C(O)c1cc(C(F)(F)F)c2cc(N3CCC4(CC3)CC(=Cc3c(-c5c(Cl)cncc5Cl)noc3C(F)(F)F)C4)ccc2n1 [Example 153] | label 0 |
| COc1cc(C(=O)O)nc2ccc(N3CCC4(CC3)CC(=Cc3c(C(C5CC5)C5CC5)noc3C3CC3)C4)cc12 [Example 107] | label 2 |
| O=C(O)c1cc(OC2CCCC2)c2cc(N3CCC4(CC3)CC(=Cc3c(-c5c(Cl)cncc5Cl)noc3C3CC3)C4)ccc2n1 [Example 125] | label 0 |
| COc1cc(C(=O)O)nc2ccc(N3CCC4(CC3)CC(=Cc3c(-c5ccccc5C(F)(F)F)noc3C(F)(F)F)C4)cc12 [Example 168] | label 0 |
| Cn1cc(-c2nn[nH]n2)c2ccc(N3CCC4(CC3)CC(=Cc3c(-c5ccccc5C(F)(F)F)noc3C3CC3)C4)cc21 [Example 62] | label 1 |
| Cc1cccc(Cl)c1-c1noc(C2CC2)c1C=C1CC2(CCN(c3nc4c(F)cc(C(=O)O)cc4s3)CC2)C1 [Example 60] | label 1 |
| O=C(O)c1cc(C(F)(F)F)c2cc(N3CCC4(CC3)CC(=Cc3c(-c5ccncc5C(F)(F)F)noc3C3CC3)C4)ccc2n1 [Example 128] | label 0 |
| CCN(CC)C(=O)c1cc(OC2CCC2)c2cc(N3CCC4(CC3)CC(Cc3c(-c5ccccc5C(F)(F)F)noc3C3CC3)C4)ccc2n1 [Example 183] | label 1 |
| O=C(O)c1cc2ccc(N3CCC4(CC3)CC(=Cc3c(-c5ccccc5C(F)(F)F)noc3C3CC3)C4)cc2nn1 [Example 36] | label 2 |
| O=C(O)c1ccc(N2CCC3(CC(=Cc4c(-c5c(Cl)cccc5Cl)noc4C4CC4)C3)C2)nc1 (stereo not drawn) [Example 132] | label 2 |
| O=C(NC1CC1)c1cc(OC2CCC2)c2cc(N3CCC4(CC3)CC(Cc3c(-c5ccccc5C(F)(F)F)noc3C3CC3)C4)ccc2n1 [Example 173] | label 2 |
| O=C(O)c1cc(OCCO)c2cc(N3CCC4(CC3)CC(=Cc3c(-c5ccccc5C(F)(F)F)noc3C3CC3)C4)ccc2n1 [Example 92] | label 2 |
| O=C(O)COc1ccc(N2CCC3(CC2)CC(=Cc2c(-c4c(Cl)cccc4Cl)noc2C2CC2)C3)cc1 [Example 61] | label 2 |
| COc1ccc(C(=O)O)c2ccc(N3CCC4(CC3)CC(Cc3c(-c5ccccc5C(F)(F)F)noc3C3CC3)C4)nc12 [Example 118] | label 1 |
| COCCn1cc(C(=O)O)c2ccc(N3CCC4(CC3)CC(=Cc3c(-c5c(Cl)cccc5Cl)noc3C3CC3)C4)cc21 [Example 57] | label 0 |
| CCc1cc(N2CCC3(CC2)CC(Cc2c(-c4c(Cl)cccc4Cl)noc2C2CC2)C3)ccc1OCC(=O)O [Example 96] | label 2 |
| O=C(O)c1cc(F)c2nc(N3CCC4(CC3)CC(=Cc3c(-c5ccccc5OC(F)(F)F)noc3C3CC3)C4)sc2c1 [Example 26] | label 1 |
| CC(=O)N1CCc2cc(N3CCC4(CC3)CC(=Cc3c(-c5ccccc5OC(F)(F)F)noc3C3CC3)C4)ccc2C1 [Example 179] | label 2 |
| O=C(O)c1ccc2cc(N3CCC4(CC3)CC(Cc3c(-c5c(Cl)cccc5Cl)noc3C3CC3)C4)ccc2n1 [Example 40] | label 1 |
| CC(C)Oc1cc(C(=O)O)nc2ccc(N3CCC4(CC3)CC(=Cc3c(-c5ccccc5C(F)(F)F)noc3C3CC3)C4)cc12 [Example 83] | label 0 |
| CCOc1cc(C(N)=O)ncc1N1CCC2(CC1)CC(=Cc1c(-c3c(Cl)cncc3Cl)noc1C1CC1)C2 [Example 146] | label 1 |
| O=C(O)c1cc(OC2CCC2)c2cc(N3CCC4(CC3)CC(=Cc3c(-c5c(Cl)cncc5Cl)noc3C3CC3)C4)ccc2n1 [Example 124] | label 0 |
| COc1cc(C(=O)O)nc2ccc(N3CCC4(CC3)CC(=Cc3c(-c5c(Cl)cncc5Cl)noc3C(F)(F)F)C4)cc12 [Example 161] | label 0 |
| O=C(O)c1cc(OCC(F)F)c2cc(N3CCC4(CC3)CC(=Cc3c(-c5ccccc5C(F)(F)F)noc3C3CC3)C4)ccc2n1 [Example 148] | label 0 |
| O=C(O)c1cc2ccc(N3CCC4(CC3)CC(=Cc3c(-c5ccccc5C(F)(F)F)noc3C3CC3)C4)cc2cn1 [Example 37] | label 2 |

----------
The following compounds are shown together with reported EC50 values.
Target System: human FXR (Homo sapiens)
Construct: expressed in transfected cells; host or cells: HEK293 cells stably carrying a 5xGal4-response-element firefly luciferase reporter, transiently transfected with the pcDNA3.1-Gal4-FXR plasmid
Method: transient human FXR/Gal4-luciferase reporter assay
Type: cell-based
Conditions: Gal4-hFXR reporter in HEK293 cells; read-out: HLE GAL-FXR EC50
Measure Name: EC50 (nM)

| Compound | Target System | Measure Name | Value |
| --- | --- | --- | --- |
| O=C(O)c1cc(F)c2nc(N3CCC4(CC3)CC(=Cc3c(C5CC5)cnn3-c3c(Cl)cccc3Cl)C4)sc2c1 [Example 7] | human FXR (Homo sapiens) | EC50 | 201 |
| O=C(O)c1cc(F)c2nc(N3CCC4(CC3)CC(=Cc3c(C5CC5)nnn3-c3c(Cl)cccc3Cl)C4)sc2c1 [Example 6] | human FXR (Homo sapiens) | EC50 | 402 |
| O=C(O)c1cc(F)c2nc(N3CCC4(CC3)CC(=Cc3c(-c5c(Cl)cccc5Cl)noc3C3CC3)C4)sc2c1 [Example 1] | human FXR (Homo sapiens) | EC50 | 41 |
| Cc1cccc(Cl)c1-c1noc(C2CC2)c1C=C1CC2(CCN(S(=O)(=O)c3ccc(C(=O)O)cc3)CC2)C1 [Example 10] | human FXR (Homo sapiens) | EC50 | 321 |
| Clc1cccc(Cl)c1-c1noc(C2CC2)c1C=C1CC2(CCN(c3ccc(-c4nn[nH]n4)cc3)CC2)C1 [Example 50] | human FXR (Homo sapiens) | EC50 | 4330 |
| O=C(O)c1cccc(CN2CCC3(CC2)CC(=Cc2c(-c4c(Cl)cccc4Cl)noc2C2CC2)C3)c1 [Example 9] | human FXR (Homo sapiens) | EC50 | 959 |
| O=C(O)c1cc(F)c2nc(N3CCC4(CC3)CC(Cc3c(-c5ccccc5C(F)(F)F)noc3C3CC3)C4)sc2c1 [Example 3] | human FXR (Homo sapiens) | EC50 | 85 |
| O=C(NS(=O)(=O)C1CC1)c1cc(C(F)(F)F)c2cc(N3CCC4(CC3)CC(Cc3c(-c5ccccc5C(F)(F)F)noc3C3CC3)C4)ccc2n1 [Example 82] | human FXR (Homo sapiens) | EC50 | 11 |
| O=C(O)c1cc(F)c2nc(N3CCC4(CC3)CC(Nc3c(-c5c(Cl)cccc5Cl)noc3C3CC3)C4)sc2c1 [Example 5] | human FXR (Homo sapiens) | EC50 | 60 |
| O=C(O)c1ccc2cc(N3CCC4(CC3)CC(=Cc3c(-c5c(Cl)cccc5Cl)noc3C3CC3)C4)ccc2n1 [Example 2] | human FXR (Homo sapiens) | EC50 | 47 |
| O=C(O)c1cc(F)c2nc(N3CCC4(CC3)CC(=Cc3c(-c5c(Cl)cccc5Cl)cnn3C3CC3)C4)sc2c1 [Example 8] | human FXR (Homo sapiens) | EC50 | 422 |
| O=C(O)c1cc(C(F)(F)F)c2cc(N3CCC4(CC3)CC(Cc3c(-c5ccccc5C(F)(F)F)noc3C3CC3)C4)ccc2n1 [Example 4] | human FXR (Homo sapiens) | EC50 | 26 |

----------
Target System: human FXR (Homo sapiens)
Construct: expressed in transfected cells; host or cells: HEK293 cells stably carrying a 5xGal4-response-element firefly luciferase reporter, transiently transfected with the pcDNA3.1-Gal4-FXR plasmid
Method: transient human FXR/Gal4-luciferase reporter assay
Type: cell-based
Conditions: Gal4-hFXR reporter in HEK293 cells; relative to 8 μM GW-4064; read-out: FXR EC50
The following compounds are shown together with reported EC50 values.
Measure Name: EC50 (nM)

| Chem Smiles | Target System | Measure Name | Value |
| --- | --- | --- | --- |
| COCCOc1cc(C(=O)O)nc2ccc(N3CCC4(CC3)CC(=Cc3c(-c5c(Cl)cncc5Cl)noc3C(F)(F)F)C4)cc12 | human FXR (Homo sapiens) | EC50 | 37 |
| COc1cc2nc(N3CCC4(CC3)CC(=Cc3c(-c5ccccc5C(F)(F)F)noc3C3CC3)C4)sc2cc1C(=O)O | human FXR (Homo sapiens) | EC50 | 667 |
| C=Cc1cncc(C=C)c1-c1noc(C2CC2)c1C=C1CC2(CCN(c3nc4c(F)cc(C(=O)O)cc4s3)CC2)C1 | human FXR (Homo sapiens) | EC50 | 1700 |
| O=C(O)c1cc(F)c2nc(N3CCC4(CC3)CC(=Cc3c(-c5c(Cl)cccc5Cl)noc3C(F)(F)F)C4)sc2c1 | human FXR (Homo sapiens) | EC50 | 68 |
| CCOc1cc(C(N)=O)ncc1N1CCC2(CC1)CC(Cc1c(-c3ccccc3C(F)(F)F)noc1C1CC1)C2 | human FXR (Homo sapiens) | EC50 | 327 |
| O=C(O)c1cc(C(F)(F)F)c2cc(N3CCC4(CC3)CC(=Cc3c(-c5ccccc5C(F)(F)F)noc3C(F)(F)F)C4)ccc2n1 | human FXR (Homo sapiens) | EC50 | 47 |
| O=C(O)Cc1ccc(N2CCC3(CC2)CC(=Cc2c(-c4c(Cl)cccc4Cl)noc2C2CC2)C3)cc1 | human FXR (Homo sapiens) | EC50 | 320 |
